target: Transient receptor potential cation channel subfamily M member 8 (Homo sapiens); test: Antagonist activity at TRPM8 (unknown origin) assessed as reduction in menthol-induced calcium influx
Sequence (Q7Z2W7 whole entry): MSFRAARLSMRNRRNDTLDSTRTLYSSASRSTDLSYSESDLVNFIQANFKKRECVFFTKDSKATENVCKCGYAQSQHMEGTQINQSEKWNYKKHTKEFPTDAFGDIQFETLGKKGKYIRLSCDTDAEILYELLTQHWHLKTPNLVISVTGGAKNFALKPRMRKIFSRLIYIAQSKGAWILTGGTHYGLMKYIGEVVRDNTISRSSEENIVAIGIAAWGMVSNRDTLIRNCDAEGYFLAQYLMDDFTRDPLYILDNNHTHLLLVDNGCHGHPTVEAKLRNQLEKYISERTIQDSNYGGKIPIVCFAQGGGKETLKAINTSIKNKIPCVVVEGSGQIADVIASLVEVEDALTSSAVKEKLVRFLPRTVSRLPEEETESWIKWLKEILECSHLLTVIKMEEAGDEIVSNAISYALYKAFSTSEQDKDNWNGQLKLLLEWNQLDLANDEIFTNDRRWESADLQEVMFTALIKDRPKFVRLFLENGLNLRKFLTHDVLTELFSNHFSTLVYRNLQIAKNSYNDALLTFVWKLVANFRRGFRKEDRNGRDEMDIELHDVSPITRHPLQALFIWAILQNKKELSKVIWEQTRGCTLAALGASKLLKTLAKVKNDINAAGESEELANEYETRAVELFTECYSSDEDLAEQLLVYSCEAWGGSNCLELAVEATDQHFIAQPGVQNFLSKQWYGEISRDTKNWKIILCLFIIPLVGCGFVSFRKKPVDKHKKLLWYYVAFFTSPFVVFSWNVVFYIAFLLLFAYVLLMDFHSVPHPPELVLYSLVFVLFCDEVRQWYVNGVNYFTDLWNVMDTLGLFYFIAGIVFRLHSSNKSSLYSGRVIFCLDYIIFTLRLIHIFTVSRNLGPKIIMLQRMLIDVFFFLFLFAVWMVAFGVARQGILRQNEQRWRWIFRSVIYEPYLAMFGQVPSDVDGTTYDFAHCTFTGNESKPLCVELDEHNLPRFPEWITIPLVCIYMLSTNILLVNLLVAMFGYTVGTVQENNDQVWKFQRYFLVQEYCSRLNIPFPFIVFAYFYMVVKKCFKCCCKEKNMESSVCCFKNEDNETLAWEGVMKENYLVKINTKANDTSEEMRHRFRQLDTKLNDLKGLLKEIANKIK

Molecule smiles | IC50
CC(C)(C)c1ccc(NC(=O)N2CCN(c3ncccc3Cl)CC2)cc1 | 0.475 µM

* * *

target: Transient receptor potential cation channel subfamily M member 8 (Rattus norvegicus, UniProt Q8R455); assay: Antagonist activity at rat TRPM8 expressed in HEK293 cells assessed as reduction in menthol-induced calcium flux incubated for 60 mins by Fluo-4 NW-dye based fluorimetric assay; format: cell-based
Sequence (Q8R455 whole entry): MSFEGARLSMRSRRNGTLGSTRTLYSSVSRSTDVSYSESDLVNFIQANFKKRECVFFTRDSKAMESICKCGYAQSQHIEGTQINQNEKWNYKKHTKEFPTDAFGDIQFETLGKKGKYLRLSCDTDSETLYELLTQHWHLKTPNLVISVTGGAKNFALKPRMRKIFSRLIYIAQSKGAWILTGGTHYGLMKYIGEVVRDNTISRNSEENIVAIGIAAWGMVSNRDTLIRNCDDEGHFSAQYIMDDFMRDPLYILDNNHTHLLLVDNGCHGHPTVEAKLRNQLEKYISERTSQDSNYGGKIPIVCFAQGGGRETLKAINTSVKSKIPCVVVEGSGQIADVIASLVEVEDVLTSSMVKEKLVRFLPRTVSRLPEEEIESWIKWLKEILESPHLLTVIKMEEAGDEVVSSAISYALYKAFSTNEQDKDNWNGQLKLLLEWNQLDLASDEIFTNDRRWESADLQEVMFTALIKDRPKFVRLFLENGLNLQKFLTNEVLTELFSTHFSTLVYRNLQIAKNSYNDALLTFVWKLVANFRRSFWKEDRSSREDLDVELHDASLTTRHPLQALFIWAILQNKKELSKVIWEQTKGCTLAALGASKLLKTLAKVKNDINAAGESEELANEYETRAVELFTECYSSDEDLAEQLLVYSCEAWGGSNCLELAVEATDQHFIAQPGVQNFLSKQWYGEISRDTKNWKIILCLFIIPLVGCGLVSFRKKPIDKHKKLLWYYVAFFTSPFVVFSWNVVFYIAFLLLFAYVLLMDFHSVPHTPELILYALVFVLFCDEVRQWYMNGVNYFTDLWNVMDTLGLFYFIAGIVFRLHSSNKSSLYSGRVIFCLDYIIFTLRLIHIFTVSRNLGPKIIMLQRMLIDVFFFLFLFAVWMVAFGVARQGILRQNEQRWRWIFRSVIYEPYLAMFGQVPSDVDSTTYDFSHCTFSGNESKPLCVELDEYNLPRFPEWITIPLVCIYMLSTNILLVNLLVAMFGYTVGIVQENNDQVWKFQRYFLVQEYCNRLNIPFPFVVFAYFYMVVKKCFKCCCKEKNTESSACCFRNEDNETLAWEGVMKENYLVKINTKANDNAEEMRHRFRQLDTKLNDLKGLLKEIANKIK
// IC50 lookup, one value per entry
Property label: IC50

Molecule smiles | Endpoint result
Cn1cc(CCN(Cc2ccccc2)Cc2ccccc2)c2ccccc21 | 3300 nM
Cc1cccc(COc2ccccc2C(=O)N(CCCN)Cc2cccs2)c1 | 6500 nM
COC(=O)[C@H](Cc1c[nH]c2ccccc12)N(Cc1ccccc1)Cc1ccccc1 | 40 nM
c1ccc(COc2ccc3[nH]cc(CCN(Cc4ccccc4)Cc4ccccc4)c3c2)cc1 | 1900 nM

* * *

// IC50 lookup, one value per entry
molecular target: Transient receptor potential cation channel subfamily M member 8 (Rattus norvegicus, UniProt Q8R455); test: Antagonist activity at rat TRPM8 expressed in HEK293 cells assessed as reduction in menthol-induced calcium flux incubated for 60 mins by Fluo-4 NW-dye based fluorimetric assay; type: cell-based

Compound | Operator | IC50 / µM
c1ccc(CN(CCc2c[nH]c3ccccc23)CC2CCCCC2)cc1 | = | 0.6
c1cc2c3c(cccc3c1)CN(CCc1c[nH]c3ccccc13)C2 | = | 11.8
O=C(O)[C@H](Cc1c[nH]c2ccccc12)N(Cc1ccccc1)Cc1ccccc1 | = | 8.2
O=[N+]([O-])c1ccc(CN(CCc2c[nH]c3ccccc23)Cc2ccccc2)cc1 | = | 3
O=[N+]([O-])c1ccc(CN2CCc3c([nH]c4ccccc34)C2c2ccccc2)cc1 (racemic) | = | 3.3
O=[N+]([O-])c1ccc(Sc2[nH]c3ccccc3c2CCN(Cc2ccccc2)Cc2ccccc2)c([N+](=O)[O-])c1 | = | 2.2
O=C(CN1CCc2c([nH]c3ccccc23)C1c1ccccc1)c1ccccc1 (racemic) | = | 1.6
c1ccc(CN(CCc2c[nH]c3ccccc23)Cc2ccccc2)cc1 | = | 3.2
O=C(O)c1ccc(CN2CCc3c([nH]c4ccccc34)C2c2ccccc2)cc1 (racemic) | > | 100

* * *

// Papp at 24 h, 500 µM lookup, one value per entry
assay: Apparent permeability of the compound in 0.01 M phosphate buffer at pH 7.4 at 0.5 mM after 24 hrs by PAMPA; type: ADME
Property label: Papp at 24 h, 500 µM (×10⁻⁶ cm/s)

Molecule smiles | Endpoint result
COC(=O)[C@H](Cc1c[nH]c2ccccc12)N(Cc1ccccc1)Cc1ccccc1 | 0.97
O=C(O)[C@H](Cc1c[nH]c2ccccc12)N(Cc1ccccc1)Cc1ccccc1 | 3.17
